Tested on: SNB-19 CNS
EXPERIMENT_SUMMARY: NCI-60 one-dose screen, 48 h
EXPERIMENTAL_PARAMETERS: 10 µM unless noted
The panel holds about 83,000 compounds, 20% with a hit somewhere; the sample as a whole holds those more often. Calls of active or inactive are those of the source. Rule for the calls: active = growth percent below 10; inactive = the rest.
Return exactly one item of active, inactive

Look over these answered cases.
>>> class("COc1cccc(CCNc2ncnc3c2ncn3Cc2nnc3c4ccccc4c(Cl)nn23)c1")
"inactive"
>>> class("CC(C)CCN(CCC(C)C)CC(O)c1cc2c(c3ccccc13)CCCC2 (stereo not given)")
"inactive"

Would you mind telling me which call this test gave `CC(=C(c1ccc(OCCN2CCCCC2)cc1)c1ccc(OCCN2CCCCC2)cc1)c1ccc(Cl)cc1` ? active

Would you mind telling me which call this test gave COc1ccc(C2=CC(c3cc(OC)c(OC)c(OC)c3)n3ncnc3N2)cc1 (stereo not given) ? inactive

Would you mind telling me which call this test gave `CN1CCN(Cc2ccc(NC(=O)c3cncc(C#Cc4cnc5ccc(Cl)nn45)c3)cc2C(F)(F)F)CC1` ? active

---

System: OVCAR-8 ovarian
EXPERIMENT_SUMMARY: NCI-60 one-dose screen, 48 h (100 = growth as untreated, 0 = no growth, -100 = all killed)
EXPERIMENTAL_PARAMETERS: 10 µM unless noted
About 83,000 compounds went through this panel and 20% of them were active in at least one assay; those are over-represented in the sample as a whole.
METRIC_NAME: growth (%)
The reply should be a number in %, with the unit left off.

>>> observed_measurement("COc1ccc(C2=CN3CC=CC3CC2=O)cc1 (stereo not given)")
103
>>> observed_measurement("N#C/C(=C\\c1cn(Cc2ccccc2)c2ccccc12)C(=O)Nc1ncc(Cc2ccccc2Cl)s1")
6.09

Looking up `C=C(CNCCc1ccc(O)cc1)[C@@H]1CC[C@]2(CO)CC[C@]3(C)[C@H](CC[C@@H]4[C@@]5(C)CCC(=O)C(C)(C)[C@@H]5CC[C@]43C)[C@@H]12` , I found its growth recorded as -70.3

Looking up `Cc1ccc(-c2nc(N3CCNCC3)c3oc(-c4ccc(C)cc4)nc3n2)cc1` , I found its growth recorded as -69

Looking up `CC1(C)CC2=C3C=C[C@@H]4[C@@]5(C)CCC(=O)C(C)(C)[C@@H]5CC[C@@]4(C)[C@]3(C)CC[C@@]2(C(=O)O)C[C@H]1O` , I found its growth recorded as 32.6

---

System: NCI-H226 lung
EXPERIMENT_SUMMARY: NCI-60 one-dose screen, 48 h (100 = growth as untreated, 0 = no growth, -100 = all killed)
EXPERIMENTAL_PARAMETERS: 10 µM unless noted
This is part of a sample that, as a whole, favours compounds with a hit. Of some 83,000 tested, about 20% had one in any assay.
Our labelling divides records by growth into ranges: lo = under 70%, med = from 70% up to 90%, hi = 90% and over

>>> class("CNC1=C([N+](=O)[O-])C(c2ccc(OC)cc2)C(C#N)=C(c2cccs2)O1 (configuration not stated)")
"hi"

Hi, small favor: classify `FC(F)(F)c1ccc(Cn2cc(CSc3nc4ccccc4s3)nn2)cc1` by its growth when you get a moment. med

Hi, small favor: classify `O=C(/C=C/c1cccc(Cl)c1Cl)Nc1ncc(Cc2ccccc2Cl)s1` by its growth when you get a moment. lo

Hi, small favor: classify `COc1cc2c(cc1OCCCCN1CCN(C(=S)SCCC(C#N)(c3ccccc3)c3ccccc3)CC1)N=C[C@@H]1CCCN1C2=O` by its growth when you get a moment. lo

Hi, small favor: classify `CCOC(=O)c1c(C)nc2c(c1N)CC(=O)N2Cc1ccc(OC)cc1` by its growth when you get a moment. lo

Hi, small favor: classify `CC1(C)CC[C@]2(CO)CC[C@]3(C)[C@H](CC[C@@H]4[C@@]5(C)CCCNC(C)(C)[C@@H]5CC[C@]43C)[C@H]2[C@H]1O` by its growth when you get a moment. hi

Hi, small favor: classify `O=S(=O)(Oc1ccc(Br)cc1)c1ccc(Cl)cc1` by its growth when you get a moment. hi

Hi, small favor: classify `CCOC(=O)c1c(C)nc2ccccc2c1/C=C/c1ccccc1` by its growth when you get a moment. med

Hi, small favor: classify `CCN1CCN(c2cc(C)nc(N(CCNc3ccnc4cc(Cl)ccc34)Cc3ccc4c(c3)OCO4)n2)CC1` by its growth when you get a moment. lo

Hi, small favor: classify `O=S(=O)(NCCNc1nccc(-c2c(-c3ccc(F)c(O)c3)nc3sccn23)n1)c1ccc(F)cc1` by its growth when you get a moment. med

---

Test system: NCI-H226 lung
EXPERIMENT_SUMMARY: NCI-60 one-dose screen, 48 h (100 = growth as untreated, 0 = no growth, -100 = all killed)
EXPERIMENTAL_PARAMETERS: 10 µM unless noted
Compounds without any hit were thinned out: in the full panel of roughly 83,000, 20% have a hit.
Class met: growth at least 60%. Class not met: growth below 60%.

Form field: growth at least 60%? Entry: `Cc1ccc(/C=C/C(=O)Nc2ncc(Cc3ccc(F)cc3)s2)o1` met

Form field: growth at least 60%? Entry: `Oc1ccc(/C=C/c2ccc(O)cc2)cc1` met

---

Listed here: items and their measured growth.
System: OVCAR-5 ovarian
EXPERIMENT_SUMMARY: NCI-60 one-dose screen, 48 h (100 = growth as untreated, 0 = no growth, -100 = all killed)
EXPERIMENTAL_PARAMETERS: 10 µM unless noted
About 83,000 compounds went through this panel and 20% of them were active in at least one assay; those are over-represented in the sample as a whole.
The reply should be a number in %, with the unit left off.

Example compounds with recorded growth:
>>> observed_measurement("CC1(C)C(N)=Nc2cc(OCCCN3Cc4ccccc4C3)c(OCC3CC3)cc21")
83.2
>>> observed_measurement("Cc1ccc2nc(-c3ccc(C(=O)NNC(=S)Nc4ccccc4)cc3)[nH]c2c1")
98.3

Looking up `CN(CCCNC(=O)Cc1ccc2ccc3cccc4ccc1c2c34)CCCNc1cc(-c2ccc3ccccc3c2)nc2ccccc12` , I found its growth recorded as -88.2

Looking up `C/C(=N\O)c1ccc(NC(=O)CSc2nnc(-c3cc(-c4ccc(S(N)(=O)=O)cc4)nc4ccccc34)n2-c2ccccc2)cc1` , I found its growth recorded as 96.6

Looking up `O=C1c2ccccc2C(=O)C1c1ccc(Br)cc1` , I found its growth recorded as 107

Looking up `Cc1cc(Nc2ccc(C(=O)N3CCCC3)cc2)nc(NCCCNc2ccnc3cc(Cl)ccc23)n1` , I found its growth recorded as 103

Looking up `Cc1cccc[n+]1C1c2ccccc2-c2ccccc21` , I found its growth recorded as 99

Looking up `CC(=O)c1sc2sc(C(C)=O)c(C)c2c1C` , I found its growth recorded as 93.2

Looking up `COc1ccc(Cn2cc(C(=O)N=Nc3c(O)[nH]c4c(C)cccc34)nn2)cc1` , I found its growth recorded as 93.6

Looking up Cn1c2c(c3ccc(Cl)c(Cl)c31)C(C#N)C(C)(C)NC2=O (stereo not drawn) , I found its growth recorded as 77.7

Looking up `CCN(CC)c1ccc(CNc2cc(C)nc3ccccc23)cc1` , I found its growth recorded as 73.2

Looking up `CCN(CC)CCN1C(=O)c2c(c(C)c3c(oc4ccc(O)cc43)c2C)C1=O` , I found its growth recorded as 97.6

Looking up `CN1C(=O)/C(=C/c2ccc(C(=O)Nc3ncc(Cc4cccc(Cl)c4)s3)cc2)SC1=S` , I found its growth recorded as 61.8

Looking up `N[C@H]1CCC[C@@H]1NCCCCN1C(=O)c2cccc3cc([N+](=O)[O-])cc(c23)C1=O` , I found its growth recorded as 73.6

Looking up `COC(=O)/C=C1/SC(=Nc2ccc([N+](=O)[O-])cc2)N(CCc2c[nH]c3ccc(O)cc23)C1=O` , I found its growth recorded as 86.4

Looking up `COc1ccc2c(c1)c(-c1nc(-c3c[nH]c4ncccc34)cs1)cn2CCCN1CCOCC1` , I found its growth recorded as 68.1

Looking up `CCCCNC(=O)Oc1ccc(/C(=C(/C)Cc2ccc(OC)cc2)c2ccc(OCCN3CCCCCC3)cc2)cc1` , I found its growth recorded as 96

---

System: OVCAR-5 ovarian
EXPERIMENT_SUMMARY: NCI-60 one-dose screen, 48 h (100 = growth as untreated, 0 = no growth, -100 = all killed)
EXPERIMENTAL_PARAMETERS: 10 µM unless noted
This is part of a sample that, as a whole, favours compounds with a hit. Of some 83,000 tested, about 20% had one in any assay.
Listed here: items and their measured growth.
The reply should be a number in %, with the unit left off.

Looking up `CC(=O)OC[C@]12CC[C@@H]([C@@H](C)c3nnc(-c4ccncc4)o3)[C@@H]1[C@H]1CC[C@@H]3[C@@]4(C)CC[C@H](OC(C)=O)C(C)(C)[C@@H]4CC[C@@]3(C)[C@]1(C)CC2` , I found its growth recorded as 109

Looking up `Fc1cccc(-c2ccc3c(c2)C2(CCNCC2)CN3)c1` , I found its growth recorded as 103

Looking up `COc1ccc(C(=O)Cn2c(C(=O)c3ccc(Cl)cc3)nc3ccccc32)cc1` , I found its growth recorded as 90.4

Looking up `COc1ccc(/C(C)=C(/c2ccc(OCCCN(C)C)cc2)c2ccc(OC(=O)c3ccccc3)cc2)cc1` , I found its growth recorded as 88.1
